assay: CHIR PK experiment with LC-MS/MS; type: in vivo, mouse; details: both, C57BL/6J, mouse, plasma, ip, 25 mg/kg
metric: CL/F (mL/min/kg)
Numbers only, in mL/min/kg.

Input: # get_value(readout='CL/F', item= Cc1c[nH]c(-c2cnc(NCCNc3ccc(C#N)cn3)nc2-c2ccc(Cl)cc2Cl)n1 )
Output: 27

----------
assay: CHIR PK experiment with LC-MS/MS; assay type: in vivo, mouse; settings: both, C57BL/6J, mouse, retina, ip, 25 mg/kg
metric: Tmax
Field: value (include unit after the number)

Input: # get_value(readout='Tmax', item= Cc1c[nH]c(-c2cnc(NCCNc3ccc(C#N)cn3)nc2-c2ccc(Cl)cc2Cl)n1 [CHIR99021] )
Output: 30 min

----------
assay: CHIR PK experiment with LC-MS/MS; assay type: in vivo, mouse; settings: both, C57BL/6J, mouse, retina, ip, 25 mg/kg
metric: Cmax (ng/g)
One number for each entry, in ng/g.

Input: # get_value(readout='Cmax', item= Cc1c[nH]c(-c2cnc(NCCNc3ccc(C#N)cn3)nc2-c2ccc(Cl)cc2Cl)n1 )
Output: 527

----------
test: CHIR PK experiment with LC-MS/MS; type: in vivo, mouse; settings: both, C57BL/6J, mouse, liver, ip, 25 mg/kg, MRT, 25 mpk IP
metric: MRT (h)
Give bare numbers, in h.

Input: # get_value(readout='MRT', item= Cc1c[nH]c(-c2cnc(NCCNc3ccc(C#N)cn3)nc2-c2ccc(Cl)cc2Cl)n1 )
Output: 1.57

----------
assay: CHIR PK experiment with LC-MS/MS; assay type: in vivo, mouse; details: both, C57BL/6J, mouse, retina, ip, 25 mg/kg
metric: concentration at 30 min (ng/g)
Give bare numbers, in ng/g.

Input: # get_value(readout='concentration at 30 min', item= Cc1c[nH]c(-c2cnc(NCCNc3ccc(C#N)cn3)nc2-c2ccc(Cl)cc2Cl)n1 [CHIR99021] )
Output: 527

----------
experiment: CHIR PK experiment with LC-MS/MS; assay type: in vivo, mouse; conditions: both, C57BL/6J, mouse, eye, ip, 25 mg/kg
metric: concentration at 24 h (nM)
Numbers only, in nM.

Input: # get_value(readout='concentration at 24 h', item= Cc1c[nH]c(-c2cnc(NCCNc3ccc(C#N)cn3)nc2-c2ccc(Cl)cc2Cl)n1 )
Output: 151

----------
assay: CHIR PK experiment with LC-MS/MS; type: in vivo, mouse; conditions: both, C57BL/6J, mouse, plasma, ip, 25 mg/kg
metric: concentration at 1440 min (ng/mL)
One number for each entry, in ng/mL.

Input: # get_value(readout='concentration at 1440 min', item= Cc1c[nH]c(-c2cnc(NCCNc3ccc(C#N)cn3)nc2-c2ccc(Cl)cc2Cl)n1 [CHIR99021] )
Output: 0.4

----------
experiment: CHIR PK experiment with LC-MS/MS; assay type: in vivo, mouse; conditions: both, C57BL/6J, mouse, liver, ip, 25 mg/kg
metric: Cmax (ng/g)
Answers are plain numbers, in ng/g.

Input: # get_value(readout='Cmax', item= Cc1c[nH]c(-c2cnc(NCCNc3ccc(C#N)cn3)nc2-c2ccc(Cl)cc2Cl)n1 [CHIR99021] )
Output: 33300

----------
assay: CHIR PK experiment with LC-MS/MS; type: in vivo, mouse; details: both, C57BL/6J, mouse, liver, ip, 25 mg/kg
metric: concentration at 180 min (ng/g)
Answers are plain numbers, in ng/g.

Input: # get_value(readout='concentration at 180 min', item= Cc1c[nH]c(-c2cnc(NCCNc3ccc(C#N)cn3)nc2-c2ccc(Cl)cc2Cl)n1 )
Output: 4680
